Target: TNFα (Homo sapiens (Human))
Sequence (P01375 77-233): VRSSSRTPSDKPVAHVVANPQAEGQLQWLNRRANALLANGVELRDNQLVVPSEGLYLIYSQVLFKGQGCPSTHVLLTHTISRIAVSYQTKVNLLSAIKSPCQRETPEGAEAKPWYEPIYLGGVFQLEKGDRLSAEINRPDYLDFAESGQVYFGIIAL
Test: TNF induced HEK-Blue assay
Settings: HEK-Blue-CD40L cells, TNFα 0.5 ng/ml, NF-κB-driven secreted alkaline phosphatase reporter, 18 h
Procedure: TNF or CD40L-Induced HEK-Blue Assay Test compounds serially diluted in DMSO were plated in an assay plate (Labcyte, Cat. #LP-0200) at final concentrations ranging from 0.004 μM to 25 μM. […] Secreted alkaline phosphatase expression was measured using QUANTI-Blue (InvivoGen, Cat. Code rep-qbl) according to manufacturer's specifications and the assay plate was read on a PerkinElmer Envision at 620 nm. […]
readout_name: IC50

Fill in: IC50 of Cc1ccc(OC(F)F)c(N2CCCc3nc4ccc(-c5cnc(N6CCOCC6)nc5)cn4c32)c1 is ___
< 1000 nM

Quick one: IC50 of COc1ccc(-c2cn3c4c(nc3cc2C)CCCN4c2cc(C)ccc2C)cn1 ?
1000 to 10000 nM

What does the data say about its IC50? Entry: CC(C)(O)c1ccc(-c2ccc3nc4c(n3c2)N(c2ccccc2OC(F)F)CCC4)cc1
< 1000 nM

Item under review: COc1ccc(-c2ccc3nc4c(n3c2)N(c2nccc3ccccc23)CCC4)cn1 . Reported IC50?
1000 to 10000 nM

Query (molecule): COc1ccc(-c2ccc3nc4c(n3c2)N(c2ccc(C)cc2C)CCC4)cn1 ; field requested: IC50
1000 to 10000 nM

For COc1ccc(-c2ccc3nc4c(n3c2)N(c2ccccc2Cl)CCC4)cn1 , what is its reported IC50?
< 1000 nM

Please give the measured IC50 for this molecule: Cc1ccc(C)c(N2CCCc3nc4cc(C)c(-c5cnn(C)c5)cn4c32)c1
< 1000 nM

Recorded IC50 of Cc1ccc(C)c(N2CCCc3nc4ccc(-c5cnn(C)c5)cn4c32)c1 , please.
< 1000 nM

I'd like to know its IC50. The molecule in question is Cc1ccc(C)c(N2CCCc3nc4ccc(-c5ccc(C(C)(C)O)cc5)cn4c32)c1
1000 to 10000 nM

Query (molecule): COc1ccc(-c2cn3c4c(nc3cc2Cl)CCCN4c2ccccc2OC(F)F)cn1 ; field requested: IC50
1000 to 10000 nM

Could you tell me which IC50 is on file for Cc1nnc(-c2ccc(-c3ccc4nc5c(n4c3)N(c3ccccc3OC(F)F)CCC5)cc2)o1 ?
< 1000 nM

Record request: IC50 value, item FC(F)Oc1ccccc1N1CCCc2nc3ccc(-c4cnc(N5CCOCC5)nc4)cn3c21
< 1000 nM

# input molecule: Cc1cc2nc3c(n2cc1-c1cnn(C)c1)N(c1ccccc1OC(F)F)CCC3 ; wanted: its IC50
1000 to 10000 nM

Field request: IC50 | item: COc1ccc(-c2ccc3nc4c(n3c2)N(c2ccccc2OC(F)(F)F)CCC4)cn1
< 1000 nM

What does the data say about its IC50? Entry: COc1ccc(-c2cn3c4c(nc3cc2C)CCCN4c2ccccc2OC(F)F)cn1
< 1000 nM

Return reported IC50; argument: CC(C)(O)c1ncc(-c2cn3c4c(nc3cc2Cl)CCCN4c2ccccc2)cn1
< 1000 nM

// query IC50 value for entry Cc1ccc(C)c(N2CCCc3nc4c(C)c(C)c(-c5cnc(N6CCOCC6)nc5)cn4c32)c1
1000 to 10000 nM
